Could you please report measured LogAUC for the items listed next?
Assayed System: CH505.M9D8gp120/293F
Protocol Details: ELISA
Answers are plain numbers.

Given item CH241 (antibody, V domains shown) VH: QVQLVQSGAAVKKPGASVRVSCKASGYTFTSSHIHWVRQAPGQGPEWMGMIDPSVGRPTTAGKFQGRVTMTRDRYTSTAYMDLSSLRSEDTAVYYCARSVETTGSLLYFDYWGQGTLITVSS VL: EIVLTQSPATLSVSPGERATLSCRASQSVRSNIAWYQQKPGQAPRLLIHGASTRATGIPGRFSGSGSGPEFTLAISSVQSEDFAVYYCQQYNDWWTFGQGTKVEIK , the value recorded as its LogAUC is 0

LogAUC reading for CH236 (antibody, V domains shown, also called CH236_4A/293i) VH: QVQLVQSGAAVKRPGASVTISCRASGYTFTTYYIHWVRQAPGQRLELMGMIDPSRGRTDYAQKFQGRVTMSRDTSTSTLYMELRSLRPDDTALYYCVRNVGTEGSLLHYDYWGQGTLVTVSS VL: EIVLTQSPATLSVSPGERVTLSCRASQSVRNNLAWYRQKRGQAPRLLIYGASTRATGIPARFSGSGSGTEFTLTISSMQSEDFAVYYCQQYNNWWTFGQGTKVEIK : 0

get_value(item= CH235 (antibody, V domains shown, also called CH235_4A) VH: QVQLVQSGAEVKKPGASVTVSCQASGYTFTNYYVHWVRQAPGQGLQLMGWIDPSWGRTNYAQNFQGRITMTRDTSTSTVYMEMRSLRSEDTAVYYCARNVATEGSLLHYDYWGQGTLVTVSA VL: EIVLTQSPATLSVSPGERATLSCRASQSVRSNLAWYQQRPGQAPRLLIYGTSTRATGVPARFSGRGSGTEFTLAISSMQSEDFAVYLCLQYNNWWTFGQGTKVEIK , readout=LogAUC) returns 0

Please supply LogAUC for each of the following items, keeping them in order.
1. CH555 (antibody, V domains shown, also called CH235.10) VH: QVQLVQSGATVKKPRASVTLSCRTSGYNFIDYFIHWVRRAPGQRLEVMGYIDPSRGRPDYAPNFRDRVSLYRDTSMSIVYLDLRDLTPDDTAIYYCVRSEGTEGTVLHYDHWGPGTRVTVSP VL: EIVLTQSPDTLSASPGERVTLSCRASQSVGTKVAWYRHVRGQPPRLLIYGASTRAAGIPARFSGGGSGTNFTLIINNFQSEDFAEYLCQQYKSWWTFGQGTKVDNK
2. CH235.13 (antibody, V domains shown) VH: QVQLVQSGGGVKRPGSTTTISCVASGYSFNDYYIHWVRQAPGQGLEVLGFIDPSNGRTNYAGAFGDRFSMYRDKSMETLYMDLRNLRSDDTAMYYCVRNVGTAGSLLHYDHWGTGSKIIVSS VL: EIVLTQSPATLSASPGERVTLTCRASRGVRNNVAWYQHNVGQSPRLLIYDASTRAPGIPARFSGSASGTEFTLAISSIQSEDFTLYYCHQYNNWWTFGQGTRVDIN
3. CH491 (antibody, V domains shown, also called CH235.7; DH491) VH: QVQLVQSGAAVKRPGASVTISCRASGYTFTTYYIHWVRQAPGQGLELMGWINPRGGRTDYSYRFEDRVSMYRDTSMSIVYMDLRNLKSADTAVYYCVRNVGTSGSLLHYDFWGQGSLVTVSS VL: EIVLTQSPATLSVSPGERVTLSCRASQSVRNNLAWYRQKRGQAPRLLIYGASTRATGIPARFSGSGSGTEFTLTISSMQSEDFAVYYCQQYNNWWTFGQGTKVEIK

0.07
0
0
